Data provenance: the nanobody polyreactivity screen of Harvey et al. (2022)

- experiment-summary: yeast display, Sf9 membrane polyspecificity reagent, FACS + sequencing; frameworks hold sequencing errors
assay-readout: polyreactivity (PSR sort gate)

sequence-string: QVQRVESAGGLVQAGGSLRISCAASGSTLYKYAMGWYRQAPGKERELVAAISWSGSSTYYADSVKGRFTISRDNAKNTVYLQMNSLKPVDTAVYYCAAYPRPYIVYTDGYVWYEFDYWGQGTQVTVSS
assay-readout: polyreactivity (PSR sort gate)
result-value: low polyreactivity
//
sequence-string: QVQLVESGGGLVQAGGSLRLSCAASGRTFATYAMGWYRQAPGKERELVAAISNSGGRTNYADSVKGRFTISRDNAKNTVYLQMNSLKPEDTAVYYCAAAKRYYSEMYWGQGTQVTVSS
assay-readout: polyreactivity (PSR sort gate)
result-value: high polyreactivity
//
sequence-string: QVQLVESGGGLVQAGGSLLLSCAASGFIFGPYALGWYRQAPGKERELVAAITWRGGRTYYADSVKGRFTISRDNAKNTVYLQMNSLKPEDTAVYYCAADYPYAMDYWGQGTQVTVSS
assay-readout: polyreactivity (PSR sort gate)
result-value: high polyreactivity
//
sequence-string: QVQLVESGGGLDQAGGSLRLSCAASGSIFWAYVMGWYRQAPGKERELVARISSGGRTKYADSVKGRFTISRDNAKNTVYLQMNSLKPEDTAVYYCNADASSSPYTDRQYIGADDSWGHGTQVTVSS
assay-readout: polyreactivity (PSR sort gate)
result-value: low polyreactivity
//
sequence-string: QVQLVESGGGLVQAGGSLRLTCAASGIIFYIYAMGWYRQAPGKERELVAGISWRGGSTSYADSVKGRFTISRDNAKNTVYLQMNSLKPEDTAVYYCAAEVYSWDGYDYWGQGTQVTVSS
assay-readout: polyreactivity (PSR sort gate)
result-value: low polyreactivity

* * *

- experiment-summary: yeast display, Sf9 membrane polyspecificity reagent, FACS + sequencing; frameworks hold sequencing errors
assay-readout: polyreactivity (PSR sort gate)

sequence-string: QVQLVESGGGLVQAGGSLSLSCAASGRTFASNAIGWYRQAPGKERELVAAISSAGGTNYADSVKGRFTISRDNAKNTVYLQMISLKPEDTAVYYCAAASPYYSYHRYIYYYWGQGTQVTVSS
result-value: high polyreactivity
//
sequence-string: QVQLVESGGGLVQAGGSLRLSCAASGGTFRSNAMGWYRQAPGKERELVAAITRTGRTNYADSVKGRFTISRDNAKNTVYLQMNSLKPEDTAVYYCNAARYVREYDYWGQGTQVTVSS
result-value: high polyreactivity

* * *

- experiment-summary: yeast display, Sf9 membrane polyspecificity reagent, FACS + sequencing; frameworks hold sequencing errors

sequence-string: QLKLVESGGGLVQAGGSLRLSCAASGSIFDVNAMGWYREAPGKEMELVAAISDSGGSTYYADSVKGRFTISRDNAKNTVYLQMNSLKPEDTAVYYCNADWSWYHYYDCDYWGQGTQVTVSS
polyreactivity (PSR sort gate): low polyreactivity
--
sequence-string: QVQLVESGGGLVQAGGSLRLSCAASGRTFRVYAMGWYRQAPGKERELVAAISGSGGSTYYADSLKGRFTISRDNAKNTVYLQMNSLKPDDTAVYYCAARYFGPGWRDRDYNYWAQGTQVTVSS
polyreactivity (PSR sort gate): high polyreactivity
--
sequence-string: QVQLVESGGGLVQAGGSLRLSCADSGRIFGPYAMGWYRQAPGKERELVAAISGGGRTDYADSVKGRFTISRDNAKNTVYLQMNSLKPEDTAVYYCNADYTYWNGWFATRDYWGQGTQVTVSS
polyreactivity (PSR sort gate): low polyreactivity
--
sequence-string: QVQLVESGGGLVQAGGSLRLSFAASGSTFVIYAMGWYRQAPGTERELVAAISGRTGSTYYADSVKGRFTISRDNAKNTVYLQMNSLKPEDTAVYYCAAYKRSGLKYGHWGQGTQVTVSS
polyreactivity (PSR sort gate): high polyreactivity
--
sequence-string: QVQLVESGGGLVQAGGSLRLSCAASGRTFGKNAMGWYRQAPGKEREFVAAITSRGGSTYYADSVKGRFTISRDYAKNTVYLQMNSLKPEDTAVYYCNREYKRPSQRTEHYYWGQGSQVTVSS
polyreactivity (PSR sort gate): low polyreactivity
--
sequence-string: QVQLVESGGGLVQAGGSLRLSCAASGRTFAYYTMGWYRQAPGKERELVAAISWIGGSTYYADSVKGRFTISRDNAKNTVYLQMNSLKPEDTAVYYCNAVGLHWWPGDYWGQGTQVTVSS
polyreactivity (PSR sort gate): low polyreactivity
--
sequence-string: QVQLVESGGGLVQAGGSLRLSCAASGSILFGNAMGWYRQAPGKEMELVAAITVSGGSTYYADSVKGRFTISRDNAKNTVYLQMNSLKPEDTAVYYCAAVSLFRDSQFDYWGQGTQVTVSS
polyreactivity (PSR sort gate): low polyreactivity
--
sequence-string: KVQLVESGGGLVQEGGSLPLSCAASGRTFDYNTMGWYRQAPGKERELVAAISSRGDSTYYADSVKGLFTISRDKAKNTVYLQMNSLNPEDTAVYYCAARYYPGRGFGYGYWGQGTQVTVSS
polyreactivity (PSR sort gate): high polyreactivity
--
sequence-string: QIKLEESGGGLVQAGGSLRISCAASGSTYWDKVMGWYRQAPGKEMELVAAIDSGGSTYYADSVKGRFTISRDNAKNTVYLLMNSLKPEDTEVYYCNSRVDTPSPYDYWGQGTQVTVSS
polyreactivity (PSR sort gate): low polyreactivity
--
sequence-string: QVQLVESGGGLVQAGGSLRLSCYASGRTFAGYVMGWYRQAHGKERELVAAINASGGSTYYADSVKGRFTISRDNAKNTVYLQMNSLKPEDTAVYYCAAARLGSDITRRYYYWGQGTQVTVSS
polyreactivity (PSR sort gate): high polyreactivity
--
sequence-string: QVQLVESGGGLVQAGGSLRLSCAASGRIFYEYAMGWYRQAPGKERELVAISTSGGNTYYADSVKGRFTISRDNAKNTVYLQMNSLKPEVTAVYYCAARLQYYPYYYWGQGTQVTVSS
polyreactivity (PSR sort gate): high polyreactivity
